Tested on: Escherichia coli TOP10;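 also: peptides expressed intracellularly from a pBAD plasmid library in pooled LB shake-flask culture, induced with 0.3% L-arabinose, DNA abundance read by NGS, three biological replicates, DESeq2 with apeglm shrinkage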
test: shrunken log2 fold change of peptide-encoding DNA abundance (4.5 h post-induction vs induction); higher = less antimicrobial activity (less host growth inhibition)
test context: time post-induction: 4.5 h; library: site-saturation at positions 5, 18, 19, 20
As shown below, each of these sequences has a reported shrunken log2 fold change value.

Solved entries:
{"columns": ["record sequence", "shrunken log2 fold change"],
 "data": [
  ["RRIRCRPPRLPRPRPRPMVVPRP", -0.0292],
  ["RRIRFRPPRLPRPRPRPFQPPRP", -0.334],
  ["RRIRNRPPRLPRPRPRPNYHPRP", -0.801]
]}

Prompt: Look up and report measured shrunken log2 fold change for this entry: RRIRSRPPRLPRPRPRPAWWPRP
Response: 0.23

Prompt: Look up and report measured shrunken log2 fold change for this entry: RRIRSRPPRLPRPRPRPIWFPRP
Response: 0.112

Prompt: Look up and report measured shrunken log2 fold change for this entry: RRIRWRPPRLPRPRPRPYKEPRP
Response: -0.387

Prompt: Look up and report measured shrunken log2 fold change for this entry: RRIRWRPPRLPRPRPRPSYSPRP
Response: -0.705

Prompt: Look up and report measured shrunken log2 fold change for this entry: RRIRQRPPRLPRPRPRPECMPRP
Response: -0.0252

Prompt: Look up and report measured shrunken log2 fold change for this entry: RRIRKRPPRLPRPRPRPNAWPRP
Response: 0.0867

Prompt: Look up and report measured shrunken log2 fold change for this entry: RRIRWRPPRLPRPRPRPKTEPRP
Response: 0.111

Prompt: Look up and report measured shrunken log2 fold change for this entry: RRIRQRPPRLPRPRPRPQRVPRP
Response: -0.182

Prompt: Look up and report measured shrunken log2 fold change for this entry: RRIRYRPPRLPRPRPRPFVGPRP
Response: -0.193

Prompt: Look up and report measured shrunken log2 fold change for this entry: RRIRLRPPRLPRPRPRPGCTPRP
Response: -0.151

Prompt: Look up and report measured shrunken log2 fold change for this entry: RRIRTRPPRLPRPRPRPRGVPRP
Response: 0.196

Prompt: Look up and report measured shrunken log2 fold change for this entry: RRIRMRPPRLPRPRPRPTPDPRP
Response: 1.39
